# experimentalTarget: T1, hFGFR4-Histag (human, UniProt P22455 22-365)
# T1 construct: also called SABVA4614
# T1 sequence (P22455 other isoform, or with tags, fused parts or gaps): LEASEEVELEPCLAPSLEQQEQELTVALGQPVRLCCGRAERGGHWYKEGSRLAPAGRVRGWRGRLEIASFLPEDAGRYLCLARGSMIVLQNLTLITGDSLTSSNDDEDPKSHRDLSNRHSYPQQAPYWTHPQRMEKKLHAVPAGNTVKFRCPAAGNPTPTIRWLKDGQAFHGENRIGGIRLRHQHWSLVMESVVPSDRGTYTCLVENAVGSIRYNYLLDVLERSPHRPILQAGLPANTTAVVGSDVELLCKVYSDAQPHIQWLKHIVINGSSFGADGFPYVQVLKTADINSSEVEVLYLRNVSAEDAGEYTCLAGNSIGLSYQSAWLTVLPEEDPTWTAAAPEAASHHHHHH
# protocol: SPR (BIAcore 3000)
parameterMeasured: koff (s⁻¹)
Number only, in s⁻¹; omit the unit.

Incoming: Item under review: anti-FGFR4 antibody clone 36 (human IgG1 format) (antibody, V domains shown, As for clone 8: human IgG1 format from HEK293; also called antibody 36) VH: EVQLLESGGGLVQPGGSLRLSCAASGFTFSHYWMGWVRQAPGKGLEWVSVISPSGGLTIYADSVKGRFTISRDNSKNTLYLQMNSLRAEDTAVYYCARSSGWALDAFDIWGQGTMVTVSS VL: QYELTQPPSASGTPGQRVTISCSGSSSNIGSNIVHWYQQLPGTAPKLLIYGNNQRPSGVPDRFSVSKSGSSASLAISGLQSEDEADYYCASWDDSLKAFYVFGTGTKVTVLG . Reported koff?
Outgoing: 0.000631

Incoming: // koff lookup, key: anti-FGFR4 antibody clone 31 (human IgG1 format) (antibody, V domains shown, As for clone 8: human IgG1 format from HEK293; also called antibody 31) VH: EVQLLESGGGLVQPGGSLRLSCAASGFTFSRYFMKWVRQAPGKGLEWVSWISPSGGLTEYADSVKGRFTISRDNSKNTLYLQMNSLRAEDTAVYYCARASYGAWLDYWGQGTLVTVSS VL: DIQMTQSPSSLSLSPGERATLSCRASQSINRNLGWYQQKPGQAPRLLIYGASTRATGIPARFTGSGSGTEFSLTISSLQSEDYAIYYCQQYDNWPIIFGQGTRLEIKG
Outgoing: 0.00098

Incoming: Fill in: koff of anti-FGFR4 antibody clone 8 (human IgG1 format) (antibody, V domains shown, also called antibody 8) VH: EVQLLESGGGLVQPGGSLRLSCAASGFTFSPYWMGWVRQAPGKGLEWVSVIWPSGGTTDYADSVKGRFTISRDNSKNTLYLQMNSLRAEDTAVYYCARVHPAGHNDHWGQGTLVTVSS VL: QSELTQPPSASGTPGQRVTISCSGGYSNMGSNYAHWYQQLPGTAPKLLIYNNNQRPSGVPDRFSGSKSGTSASLAISGLRSEDEADYYCAAWDDSLSGPVFGGGTKLTVLG is ___
Outgoing: 0.000292

Incoming: Reported koff, binder anti-FGFR4 antibody clone 33 (human IgG1 format) (antibody, V domains shown, As for clone 8: human IgG1 format from HEK293; also called antibody 33) VH: EVQLLESGGGLVQPGGSLRLSCAASGFTFSTYWMAWVRQAPGKGLEWVSVIGPSGGMTVYADSVKGRFTISRDNSKNTLYLQMNSLRAEDTAVYYCARINSGSSHFDYWGQGTLVTVSS VL: QSVLTQPPSASGTPGQGVTISCSGSSSNIGSNSVNWYQQLPGAAPKLLIYSNNLRPSGVPARFSGSKSGTSASLAISGLRSEDEADYYCAAWDDGLDAYVVFGGGTKLTVLG : ____
Outgoing: 0.000617
